Data provenance is the supplement of paper PMC4862054.

Some compounds, each annotated with its measured normalised response.
Tested on: Hs578T
Protocol summary: normalised response (% of control), CellTiter-Glo; higher = more viable cells (100 = DMSO, 0 = benzethonium chloride kill control)
Condition summary: incubation time: 72 h
Could you give me the number in %? Just the number is fine.

The examples below pair each entry with its known result.
COc1cc(Nc2ncc(F)c(Nc3ccc4c(n3)NC(=O)C(C)(C)O4)n2)cc(OC)c1OC [Tamatinib] (1 nM) : 111
COc1cc(Nc2ncc(F)c(Nc3ccc4c(n3)NC(=O)C(C)(C)O4)n2)cc(OC)c1OC [Tamatinib] (1000 nM) : 101
CC(C)C[C@H](NC(=O)[C@H](Cc1ccccc1)NC(=O)c1cnccn1)B(O)O [Bortezomib] (100 nM) : 0.6

# lookup: normalised response of C[C@@H]1CCN(C(=O)CC#N)C[C@@H]1N(C)c1ncnc2[nH]ccc12 [Tofacitinib] (0.5 nM) 100

And COc1cccc2c1C(=O)c1c(O)c3c(c(O)c1C2=O)C[C@@](O)(C(C)=O)C[C@@H]3O[C@H]1C[C@H](N)[C@H](O)[C@H](C)O1 [Daunorubicin] (100 nM) ? 92.6
